FYI, the data here is from ChEMBL document CHEMBL3046514.

# EXPERIMENTAL PROTOCOL: Inhibition of purified Triticum aestivum (wheat) germ imidazole glycerol phosphate dehydratase
pIC50: −log10 of the molar value.
pIC50 for assorted molecules

MOLECULE: O=P(O)(O)[C@@H]1CCC[C@](O)(c2nc[nH]n2)C1
pIC50: 7.74
--
MOLECULE: O=P(O)(O)[C@H]1C[C@@](O)(c2nc[nH]n2)C1
pIC50: 3.57
--
MOLECULE: O=P(O)(O)[C@@H]1CCC[C@](O)(c2nc[nH]n2)C1 (relative stereo)
pIC50: 7.40
--
MOLECULE: O[C@@]1(c2nc[nH]n2)CCC[C@H](P(O)(O)=P)C1
pIC50: 5.74
--
MOLECULE: O=P(O)(O)[C@@H]1CCC[C@@](O)(c2nc[nH]n2)C1 (relative stereo)
pIC50: 5.00
